- TEST PROTOCOL: yeast display, Sf9 membrane polyspecificity reagent, FACS + sequencing; frameworks hold sequencing errors

{"QUERY SEQUENCE": "QVQLVESGGGLVQAGGSLRLSCAASGSTFVYAMAWSRQAPGKERELVAAIRLRSGSTYYADSVKGRFTISRDNAKNTVYLQMNSLKPEDTAVYYCAAAIQSSKVSVKFGYWGQGTQVTVSS", "polyreactivity (PSR sort gate)": "high polyreactivity"}
{"QUERY SEQUENCE": "QVQLVESGGGLVQAGGSLRLSCAASGSIFDVNAMGWYRQAPGKERELVAAISDSGGSTYYADSVKGRYTISRDNAKNTVYLQMNSLKPEDTAVYYCNADWSWYNYYDFDYWGQGTQVTVSS", "polyreactivity (PSR sort gate)": "low polyreactivity"}
{"QUERY SEQUENCE": "QVQLVESGGGLVQAGGSLRLSCAASGSIFDLYAMGWYRQAPGKERELVAAINSGGSTYADSVKGRFTISRDNSKNTVYLQMNSLKPEDTAVYYCNADYRHSLGSGYDYWGQVTQVTVSS", "polyreactivity (PSR sort gate)": "low polyreactivity"}
{"QUERY SEQUENCE": "QVQLVESGGGLVQAGGSLRVSCAASGSTFLVYARGWYRQAPGKERELVAAISWSGGSTYYADSVKGRFTISRDNAKKTVYLQMNSLKPEDTAVYYCNAEGIYRQPRGYVYRYDYWGQGTQVTVSS", "polyreactivity (PSR sort gate)": "high polyreactivity"}
{"QUERY SEQUENCE": "QVQLVESGGGLVQAGGSLRLSCAASGIIFNWYAMGWYRQAPGKERELVAGISTSGGSTYYADSVKGRFTISRDNAKNTVYLQMNSLKPEDTAVYYCAAGRRGAWQYGYYYWGQGTQVTVSS", "polyreactivity (PSR sort gate)": "high polyreactivity"}
{"QUERY SEQUENCE": "QVQLVESGGGLVQAGGSLRLSCAASGITFSDYAMGWYRQAPGKEWELVAAISARGGSTYYADSVKGRFTISRDNAKNTVYLQMNSLKPEDTAVYYCAADKRTPYYSRAGMDYWGQGTQVTVSS", "polyreactivity (PSR sort gate)": "low polyreactivity"}
{"QUERY SEQUENCE": "QVQLVESGGGLVQAGGSLRLSCAASGRTFKPYVMGWYRQAPGKERELVAAISSRGDITYYADSVKCRFTISRHNAKNTVYLHMNSLKPEDTAVYYCNAGPAVRSAYSTPYYDYWGQGTQVTVSS", "polyreactivity (PSR sort gate)": "low polyreactivity"}
{"QUERY SEQUENCE": "QVQLVESGGGLVQAGGSLRLSCAASGSTYTHNTMGWYRQAPGKERELVAAISKSGGRTYYADSVKGRFTISRDHAKNTVYLQMNSLKPEVTAVYYCAARVTGVGDYYWGQGTQVTGSS", "polyreactivity (PSR sort gate)": "high polyreactivity"}
{"QUERY SEQUENCE": "QVQLVESGGGLVQAGGSLRLSCAASGRIFYWNAMGWYRQAPGKERELVAAITYSTGSTYYADSVKGRFTISRDNAKNTVYLQMNSLKPEDTAVYYCAAEGPRGSWWALYDYWGQGTQVTVSS", "polyreactivity (PSR sort gate)": "low polyreactivity"}
{"QUERY SEQUENCE": "QVQLVESGGGLVQAGGSLRLICAASGSIFPFYAMGWYRQEPGKERELVAAITYSGGRTYYADSVKGRFTISRDNAKNTVYLQMNSLKPEDTAVYYCAVVVIFVRYGYWGQGTQVTVSS", "polyreactivity (PSR sort gate)": "low polyreactivity"}
{"QUERY SEQUENCE": "QVQLVESGGGLVQAGGSLRLSCADSGSTLQVNAMGWYRQAPGKERELVATISFSGGSTYYADSVKGRFTISRDNAKNTVYLQMNSLNPEDTAVYYCNADSFVSWYNQFWYQATYDYWGQGTQVTVSS", "polyreactivity (PSR sort gate)": "low polyreactivity"}
{"QUERY SEQUENCE": "QVQLVESGGGLVQAGGSLRLSCAAYGRIFKYYVMGWYRQAPGKERELVATISSGSGTNYADSVKGRFTISRDNAKNTVYLQMNSLKPEDTAVYYCAARWTPRVRGYNYWGQGTLVTVSS", "polyreactivity (PSR sort gate)": "high polyreactivity"}
{"QUERY SEQUENCE": "QVQRVESGGGLVQAGGSLRLSCAASGSIFPYYAMGWYRQAPGKETELVATITYRGGSTNYADSVKGRFTISRDNAKNTVYLQMNSLKPEDTAVYSCAAYGYVLASPYPYSFVKLGYCGQGTQVTVSS", "polyreactivity (PSR sort gate)": "low polyreactivity"}
{"QUERY SEQUENCE": "QVQLLESGGGLVQPGGSLRLSCAASGRIFRHSAMGWYRQAPGKERELVAAISGGGGRTYYADSVKGRFTISRDNAKLSVDLQMNSLKPEDTAVYYCAAYRSRHYYYWGHGTQVTVSS", "polyreactivity (PSR sort gate)": "high polyreactivity"}
{"QUERY SEQUENCE": "QVQLVESGGGLVQAGGSLRLSCAASGRTFTPNAMGWYRQAPGKERELVASIRRGTSTYYADSVKGRFTISRDNAKNTVYLQMNSLKPEDTAVYYCAAKSYHGYPFDYWGQGTQVTVSS", "polyreactivity (PSR sort gate)": "high polyreactivity"}
{"QUERY SEQUENCE": "QVQLVESGGGLVQAGGSLRLSCAASGIILYVNAMGWYRQAPGKEREFVAAISWGGGSTYYADSVKGRFTISRDNAKNTVYLQMNSLKPEDTAVYYCAAEFWSGYPTYTYDYWGQGTQVTVSS", "polyreactivity (PSR sort gate)": "low polyreactivity"}
{"QUERY SEQUENCE": "QVQLVESGGGLVQAGGSLRLSCAASGSIFRNYAMGWYRQAPGKERELVAAITRGGGSTYYADSVKGRFTISRDNAKNTVYLQMNSLKPEDTAVYYGAAGSTRERNPRYGYWGQGTQVTVSS", "polyreactivity (PSR sort gate)": "high polyreactivity"}
{"QUERY SEQUENCE": "QVQLVESGGGLVQAGGSLRLSCAASGSTIYGYAMGWDRQAPGKERELVAAISYRGGSTYYADSVKGRFTISRDNAKNTVYLQMNSLKPEDTAVYYCAALGDDATSYGYWGQGTQVTVSS", "polyreactivity (PSR sort gate)": "high polyreactivity"}
{"QUERY SEQUENCE": "HVQLVESGGGLVQEGGSLRLSCAASGSILNQNAMGWYRQARGKERELVASISWDGDRTYYADSVKGRFTISRDNAKNTVYLQMNSLKPEDTAVYYCAASFYGIDRMGYWGQGTQVTVSS", "polyreactivity (PSR sort gate)": "low polyreactivity"}
{"QUERY SEQUENCE": "QVQLVESGGGLVQAGGSLRLSSAASGRTFNYYTMGWYRQAPGKERELVAAITNGGSTNYADSVKGRFTISRDNAKNTVYLQMNSLKPEDTAVYYCNADAFAFRTLHYDYWGQGTQVTVSS", "polyreactivity (PSR sort gate)": "low polyreactivity"}
{"QUERY SEQUENCE": "QVQLVESGGGLVQAGGSLRLSCAASGSIFGAYAMGWYRQAPGKERELVAVISRSGGRTYYADSVKGRFTISRDNAKNTVYLQMNSLKPEDTAVYYCAASYPVPPYGMDYWGQGTQVTVSS", "polyreactivity (PSR sort gate)": "high polyreactivity"}
